- System tested: human MCHR1 (Homo sapiens, UniProt Q99705)
- Construct: host or cells: CHO
- Sequence (Q99705 whole entry): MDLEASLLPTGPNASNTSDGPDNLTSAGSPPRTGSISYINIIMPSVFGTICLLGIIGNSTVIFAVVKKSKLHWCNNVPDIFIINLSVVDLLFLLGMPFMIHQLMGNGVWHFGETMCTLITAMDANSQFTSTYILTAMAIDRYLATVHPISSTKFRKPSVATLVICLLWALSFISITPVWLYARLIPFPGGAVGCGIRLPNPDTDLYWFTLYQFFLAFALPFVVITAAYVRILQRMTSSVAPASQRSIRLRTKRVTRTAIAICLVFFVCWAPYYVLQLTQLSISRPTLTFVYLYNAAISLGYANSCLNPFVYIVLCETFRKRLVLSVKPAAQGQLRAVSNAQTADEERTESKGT
- Assay: Cyclic AMP assay (MCHR-1 functional antagonism)
- Type: cell-based
- Assay conditions: CHO cells stably expressing human MCHR1; cAMP accumulation with 25 uM forskolin and 0.2 nM MCH, 90 min; Ki from IC50 by Cheng-Prusoff; read-out: MCHR-1 functional Ki
Threshold check on Ki: strictly below 0.03 µM is TRUE; on or above 0.03 µM is FALSE.

Known results for compounds:
Compound	System tested	Label class
CC(=O)N1C[C@@H]2CN(c3ccc(-n4ccc(OCc5ccc(F)cc5)cc4=O)cn3)C[C@@H]2C1 [Example 164]	human MCHR1 (Homo sapiens, UniProt Q99705)	FALSE
CC(=O)N(C)[C@H]1CCN(c2ccc(-n3ccc(OCc4ccccc4)cc3=O)cn2)C1 [Example 20]	human MCHR1 (Homo sapiens, UniProt Q99705)	TRUE
CCN(C(C)=O)[C@@H]1CCN(c2ccc(-n3ccc(OCc4ccccc4)cc3=O)cn2)C1 [Example 160]	human MCHR1 (Homo sapiens, UniProt Q99705)	TRUE
CN(C(=O)OC(C)(C)C)[C@H]1CCN(c2ccc(-n3ccc(OCc4ccc(Cl)cc4)cc3=O)cn2)C1 [Example 198]	human MCHR1 (Homo sapiens, UniProt Q99705)	TRUE
O=c1cc(OCc2ccccc2)ccn1-c1ccc(N2CCCNCC2)nc1 [Example 216]	human MCHR1 (Homo sapiens, UniProt Q99705)	FALSE

**Q:** Bench note: check whether CN[C@H]1CCN(c2ccc(-n3ccc(OCc4ccc(Cl)c(F)c4)cc3=O)cn2)C1 [Example 152] shows Ki below 0.03 µM
**A:** TRUE

**Q:** Bench note: check whether CO[C@H]1CCN(c2ccc(-n3ccc(OCc4ccccc4)cc3=O)cn2)C1 [Example 36] shows Ki below 0.03 µM
**A:** FALSE

**Q:** Bench note: check whether CN(C)[C@H]1CCN(c2ccc(-n3ccc(OCc4ccccc4)cc3=O)cn2)C1 [Example 57] shows Ki below 0.03 µM
**A:** TRUE

---

- System tested: human MCHR1 (Homo sapiens, UniProt Q99705)
- Construct: host or cells: CHO
- Assay: Cyclic AMP assay (MCHR-1 functional antagonism)
- Assay type: cell-based
- Assay conditions: CHO cells stably expressing human MCHR1; cAMP accumulation with 25 uM forskolin and 0.2 nM MCH, 90 min; Ki from IC50 by Cheng-Prusoff; read-out: MCHR-1 functional Ki
Quantity: Ki (nM)
Numbers only, in nM.

Worked examples, 2 compounds total:
Compound	Reported
CN(C(=O)OC(C)(C)C)[C@@H]1CCN(c2ccc(-n3ccc(OCc4ccc(Cl)cc4)cc3=O)cn2)C1 [Example 197]	7.7
COC(=O)N[C@H]1CCN(c2ccc(-n3ccc(OCc4ccc(Cl)cc4)cc3=O)cn2)C1 [Example 194]	46.6

Give Ki for all compounds that follow.
1. O=C1CCN(c2ccc(-n3ccc(OCc4ccccc4)cc3=O)cn2)C1 [Example 30]
2. COC(=O)N(C)[C@H]1CCN(c2ccc(-n3ccc(OCc4ccccc4)cc3=O)cn2)C1 [Example 181]
3. C[C@@H]1CN(c2ccc(-n3ccc(OCc4ccccc4)cc3=O)cn2)[C@@H](C)CN1 [Example 73]
4. CC(C)CC1CN(c2ccc(-n3ccc(OCc4ccccc4)cc3=O)cn2)CCN1 (centres unmarked) [Example 222]
5. CCN(C(C)=O)[C@H]1CCN(c2ccc(-n3ccc(OCc4ccccc4)cc3=O)cn2)C1 [Example 161]
6. CC(=O)N[C@H]1CCN(c2ccc(-n3ccc(OCc4ccc(Cl)cc4)cc3=O)cn2)C1 [Example 174]
7. O=C1CCCN1[C@H]1CCN(c2ccc(-n3ccc(OCc4ccccc4)cc3=O)cn2)C1 [Example 27]

**A:**
1: 2470; 2: 10.9; 3: 517; 4: 680; 5: 33.3; 6: 26.2; 7: 71.4

Data origin, for the record: patent US20080085884A1
